Let's look at some molecules and their measured Plant response rating, Ryegrass, Italian.
# Tested on: ryegrass, Italian (Italian ryegrass, Lolium multiflorum)
# run.description: Test A postemergence ryegrass, Italian
# Type: in vivo
# run.parameters: 500 g ai/ha, 0 to 100 scale, 0 is no effect, 100 is complete control
result.type: Plant response rating, Ryegrass, Italian

1. O=C1NCC[C@@H](c2cccc(C(F)(F)F)c2)[C@@H]1C(=O)Nc1ccc(F)c(F)c1F    0
2. O=C1NCCC(c2cccc(OC(F)(F)F)c2)C1C(=O)Nc1cccc(F)c1F (racemic)    50
3. O=C1NCC[C@@H](c2cccc(C(F)(F)F)c2)[C@@H]1C(=O)Nc1cccc(F)c1F    20
4. O=C(Nc1ccccc1C(F)(F)F)C1C(=O)N(Cc2ccccc2)CCC1c1ccc(F)cc1 (stereo not shown)    0

---

# Tested on: barnyardgrass (Echinochloa crus-galli)
# run.description: Test B flooded paddy test barnyardgrass
# Assay type: in vivo
# run.parameters: Table B, Flood, 500 g ai/ha, scale 0 to 100
result.type: Plant response rating

1. O=C1NCCC(c2cccc(C(F)(F)F)c2)C1C(=O)Nc1ccccc1Cl (racemic)    35
2. O=C1NCCC(c2cccc(C(F)(F)F)c2)C1C(=O)Nc1ccc(F)c(F)c1F (racemic)    100
3. O=C1NCCC(c2cccc(OC(F)F)c2)C1C(=O)Nc1cccc(F)c1F (racemic)    65
4. O=C1NCCC(c2cccc(C(F)(F)F)c2)C1C(=O)Nc1ccc(F)cc1F (racemic)    0
5. O=C1NCCC(c2cccc(OC(F)F)c2)C1C(=O)Nc1ccccc1F (racemic)    0
6. CS(=O)(=O)c1ccccc1NC(=O)C1C(=O)NCCC1c1cccc(C(F)(F)F)c1 (racemic)    0

---

# System: ragweed (common ragweed, Ambrosia elatior)
# run.description: Test A preemergence ragweed
# Type: in vivo
# run.parameters: Ambrosia artemisiifolia, pre-emergence, 240 h, 500 g ai/ha, 0 to 100 scale, 0 no effect, 100 complete control, read-out: Ragweed plant response rating
result.type: pest or weed control at 500 g/ha (%)

1. O=C1NCCC(c2cccc(C(F)(F)F)c2)C1C(=O)Nc1ccc(F)c(F)c1F (stereo not shown)    0
2. O=C1NCC[C@H](c2cccc(C(F)(F)F)c2)[C@H]1C(=O)Nc1cccc(Cl)c1F    0
3. CN1CC[C@H](c2ccc(F)cc2)[C@@H](C(=O)Nc2ccccc2C(F)(F)F)C1=O    0
4. O=C1NCCC(c2cccc(C(F)F)c2)C1C(=O)Nc1cccc(F)c1F (stereo not shown)    0
5. CN1CC[C@H](c2ccc(F)cc2)[C@@H](C(=O)Nc2cccc(F)c2F)C1=O    30
6. O=C1NCCC(c2ccc(C(F)(F)F)cc2)C1C(=O)Nc1ccccc1Cl (stereo not shown)    0
7. O=C1NCC[C@H](c2ccc(C(F)(F)F)cc2)[C@H]1C(=O)Nc1cccc(F)c1F    80
8. O=C1NCC[C@H](c2ccc(F)cc2)[C@H]1C(=O)Nc1ccccc1C(F)(F)F    0
9. O=C1NCCC(c2cccc(Cl)c2)C1C(=O)Nc1cccc(F)c1F (stereo not shown)    0
10. O=C1NCC[C@H](c2cccc(C(F)(F)F)c2)[C@H]1C(=O)Nc1cccc(F)c1F    0
11. O=C1NCCC(c2ccc(C(F)(F)F)cc2)C1C(=O)Nc1cccc(F)c1F (stereo not shown)    80
12. O=C1NCCC(c2ccc(C(F)(F)F)cc2)C1C(=O)Nc1ccccc1F (stereo not shown)    0
13. O=C1NCC[C@H](c2cccc(Cl)c2)[C@H]1C(=O)Nc1cccc(F)c1F    0

Origin of the recorded values: patent US9944602B2
